Tested on: LCLC-97TM1
Assay: relative viability (nuclei count vs DMSO), 5 days (fraction); higher = more cells survive
Settings: first compound 0.3162 µM
Please assign rule not met whenever relative viability is at or above 0.3, and rule met whenever it is below.

molecule	class-label
NC(=O)Nc1cc(-c2cccc(F)c2)sc1C(=O)N[C@H]1CCCNC1 [AZD7762] + Cc1nc(NC(=O)N2CCC[C@H]2C(N)=O)sc1-c1ccnc(C(C)(C)C(F)(F)F)c1 [Alpelisib] (partner 2 µM)	rule met
NC(=O)Nc1cc(-c2cccc(F)c2)sc1C(=O)N[C@H]1CCCNC1 [AZD7762] + CC(=O)c1c(C)c2cnc(Nc3ccc(N4CCNCC4)cn3)nc2n(C2CCCC2)c1=O [Palbociclib] (partner 0.5 µM)	rule met
NC(=O)Nc1cc(-c2cccc(F)c2)sc1C(=O)N[C@H]1CCCNC1 [AZD7762] + Cc1cc(Nc2cc(N3CCN(C)CC3)nc(Sc3ccc(NC(=O)C4CC4)cc3)n2)n[nH]1 [Tozasertib] (partner 0.1 µM)	rule not met
NC(=O)Nc1cc(-c2cccc(F)c2)sc1C(=O)N[C@H]1CCCNC1 [AZD7762] + C[C@@H](Oc1cc(-c2cnn(C3CCNCC3)c2)cnc1N)c1c(Cl)ccc(F)c1Cl [Crizotinib] (partner 1 µM)	rule not met
NC(=O)Nc1cc(-c2cccc(F)c2)sc1C(=O)N[C@H]1CCCNC1 [AZD7762] + COc1cc2c(Oc3ccc(NC(=O)C4(C(=O)Nc5ccc(F)cc5)CC4)cc3F)ccnc2cc1OCCCN1CCOCC1 [Foretinib] (partner 0.25 µM)	rule not met
